# Procedure Text: Kinetic solubility determination by LC-UV
# Condition: water, Solubility µM (H2O), 24 h, room temperature, 1% DMSO
Collected solubility at 24 h values appear next to each entry.

{"Compound": "Cc1ccc(Cn2ccn3cc([N+](=O)[O-])nc3c2=O)cc1 [17d]", "solubility at 24 h": "< 5 µM"}
{"Compound": "Cc1nc(OCc2cccc(OC(F)(F)F)c2)c2nc([N+](=O)[O-])cn2c1C [26g]", "solubility at 24 h": "< 5 µM"}
{"Compound": "Cc1c(C)n2cc([N+](=O)[O-])nc2c(=O)n1Cc1cccc(OC(F)(F)F)c1 [26f]", "solubility at 24 h": "15.9 µM"}
{"Compound": "Cc1cccc(Cn2ccn3cc([N+](=O)[O-])nc3c2=O)c1 [17g]", "solubility at 24 h": "< 5 µM"}
{"Compound": "Cc1cn2cc([N+](=O)[O-])nc2c(=O)n1Cc1ccccc1OC(F)(F)F [25l]", "solubility at 24 h": "< 5 µM"}
{"Compound": "CC(=O)OCCn1c(-c2ccccc2)cn2cc([N+](=O)[O-])nc2c1=O [24b]", "solubility at 24 h": "164 µM"}
